Measured Average response, listed per entry.
system.tested: Drosophila OR98a (Drosophila melanogaster, UniProt Q9VAZ3)
Construct: expressed in transfected cells
Sequence (Q9VAZ3 whole entry, one chain of several): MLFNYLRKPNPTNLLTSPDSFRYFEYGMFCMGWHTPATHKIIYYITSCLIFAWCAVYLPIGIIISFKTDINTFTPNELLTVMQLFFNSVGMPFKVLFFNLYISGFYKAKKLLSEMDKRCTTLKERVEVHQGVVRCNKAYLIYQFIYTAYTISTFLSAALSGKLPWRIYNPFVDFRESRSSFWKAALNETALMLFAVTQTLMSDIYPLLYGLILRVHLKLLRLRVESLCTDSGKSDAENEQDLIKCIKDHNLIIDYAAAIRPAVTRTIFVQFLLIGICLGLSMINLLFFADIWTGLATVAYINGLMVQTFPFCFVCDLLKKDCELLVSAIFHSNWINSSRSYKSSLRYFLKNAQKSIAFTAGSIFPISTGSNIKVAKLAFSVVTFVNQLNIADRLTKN
protocol: Calcium ion fluorescence (GCaMP6) assay, OR98a stable HEK293 cell line
Type: cell-based
condition.notes: cc. 1 µM; OR98a cell line; average of biological replicates; fraction of VUAA1 response
No unit in the answer, please; the number alone is enough.

Below: 5 compounds and their reported Average response.
Item under review: C=C1[C@H]2CC[C@@H]3[C@H]2C(C)(C)CCC[C@]13C [(+)-longifolene] . Reported Average response?
0.0106

# Average response lookup, item `CC(C)=CCC/C(C)=C/CC/C(C)=C/CO`
0.017

Data request, read-out Average response, for `CC/C=C\CCO`
0.00

Look at this compound and give its reported Average response. C=C(C)[C@H]1CC=C(C)CC1 [(R)-(+)-limonene]
0.03

If you can, please state the reported Average response value of C=C(C)C1CCC2(C)OC2C1 (single isomer, unassigned; (+)) [(+)-limonene oxide] .
0.00

Others:
# get_value(readout='Average response', item= C=C(C)[C@H]1CC=C(C)CC1 [limonene] )
0.00

What does the data say about its Average response? Entry: `CC/C=C/CCO`
0.00

Fill in the blank: the reported Average response of CC1=CCC[C@@]2(C)[C@@H]3CC[C@]12CC3(C)C [(−)-α-neoclovene] is ____.
0.15

* * *

system.tested: Drosophila OR10a (Drosophila melanogaster, UniProt Q9VYZ1)
Construct: expressed in transfected cells
Sequence (Q9VYZ1 1-406): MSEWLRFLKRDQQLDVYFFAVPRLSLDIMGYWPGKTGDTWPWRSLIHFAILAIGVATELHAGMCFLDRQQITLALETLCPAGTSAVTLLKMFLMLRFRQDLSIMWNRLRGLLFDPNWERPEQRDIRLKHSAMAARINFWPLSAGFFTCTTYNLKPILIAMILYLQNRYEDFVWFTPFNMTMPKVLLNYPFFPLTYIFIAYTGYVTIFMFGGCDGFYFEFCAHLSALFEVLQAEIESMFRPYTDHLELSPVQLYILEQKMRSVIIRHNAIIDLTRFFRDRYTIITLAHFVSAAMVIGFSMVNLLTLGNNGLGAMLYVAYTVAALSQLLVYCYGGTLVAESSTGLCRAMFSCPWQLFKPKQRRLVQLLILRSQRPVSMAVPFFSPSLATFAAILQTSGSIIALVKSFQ
Sequence (Q9VNB5 1-486 partner): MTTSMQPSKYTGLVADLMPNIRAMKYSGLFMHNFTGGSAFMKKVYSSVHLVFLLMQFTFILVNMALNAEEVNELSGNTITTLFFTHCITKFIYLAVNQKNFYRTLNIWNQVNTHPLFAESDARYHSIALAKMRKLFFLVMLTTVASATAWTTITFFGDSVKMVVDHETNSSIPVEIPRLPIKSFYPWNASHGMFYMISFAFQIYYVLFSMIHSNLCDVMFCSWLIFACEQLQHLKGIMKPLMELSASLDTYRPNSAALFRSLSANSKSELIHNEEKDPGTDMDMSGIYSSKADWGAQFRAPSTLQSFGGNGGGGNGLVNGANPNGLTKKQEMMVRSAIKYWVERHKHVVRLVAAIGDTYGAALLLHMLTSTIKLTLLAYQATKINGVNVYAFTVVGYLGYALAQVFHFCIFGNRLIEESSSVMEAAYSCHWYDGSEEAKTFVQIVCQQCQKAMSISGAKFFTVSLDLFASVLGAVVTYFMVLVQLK
protocol: Calcium ion fluorescence (GCaMP6) assay, OR10a stable HEK293 cell line
Assay type: cell-based
condition.notes: VOC concentration 100 μM
Each entry below carries its reported OR10a response (VUAA1-normalized response).
Number only, please.

Some solved entries appear below for comparison.
Record lookup: for Drosophila OR10a (Drosophila melanogaster, UniProt Q9VYZ1), what OR10a response (VUAA1-normalized response) belongs to `CC/C=C\CCO` ?
0.074

Kindly state the measured OR10a response (VUAA1-normalized response) obtained for C=C1[C@H]2CC[C@@H]3[C@H]2C(C)(C)CCC[C@]13C [(+)-longifolene] with Drosophila OR10a (Drosophila melanogaster, UniProt Q9VYZ1).
0.00

Under Drosophila OR10a (Drosophila melanogaster, UniProt Q9VYZ1): OR10a response (VUAA1-normalized response) value of C=C(C)C1CCC2(C)OC2C1 (single isomer, unassigned; (+)) [(+)-limonene oxide] ?
0.00

Enter reported OR10a response (VUAA1-normalized response) observed with Drosophila OR10a (Drosophila melanogaster, UniProt Q9VYZ1) for `CC(C)=CCC/C(C)=C/CC/C(C)=C/CO`
0.00

Hello, I am looking for reported OR10a response (VUAA1-normalized response) with Drosophila OR10a (Drosophila melanogaster, UniProt Q9VYZ1) for C=C(C)[C@H]1CC=C(C)CC1 [(R)-(+)-limonene] . Could you help?
0.00

What is its OR10a response (VUAA1-normalized response) for Drosophila OR10a (Drosophila melanogaster, UniProt Q9VYZ1)? Entry: C=C(C)[C@H]1CC=C(C)CC1 [limonene]
0.06

Now for the compound whose OR10a response (VUAA1-normalized response) we want.
Requested read-out OR10a response (VUAA1-normalized response), target or system Drosophila OR10a (Drosophila melanogaster, UniProt Q9VYZ1), entry CC1=CCC[C@@]2(C)[C@@H]3CC[C@]12CC3(C)C [(−)-α-neoclovene]
0.12

* * *

system.tested: Drosophila OR47a (Drosophila melanogaster)
Construct: expressed in transfected cells
Sequence (P81921 whole entry, one chain of several): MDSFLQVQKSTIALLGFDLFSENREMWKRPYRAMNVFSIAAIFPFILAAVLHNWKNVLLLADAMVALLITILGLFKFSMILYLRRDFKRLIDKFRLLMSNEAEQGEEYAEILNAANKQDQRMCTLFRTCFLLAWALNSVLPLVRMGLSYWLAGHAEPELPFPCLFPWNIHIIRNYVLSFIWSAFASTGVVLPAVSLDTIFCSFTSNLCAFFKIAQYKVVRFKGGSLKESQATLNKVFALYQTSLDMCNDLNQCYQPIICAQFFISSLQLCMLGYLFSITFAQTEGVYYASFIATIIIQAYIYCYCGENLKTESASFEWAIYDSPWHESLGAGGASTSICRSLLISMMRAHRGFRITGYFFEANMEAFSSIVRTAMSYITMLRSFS
protocol: Calcium ion fluorescence (GCaMP6) assay, OR47a stable HEK293 cell line
Format: cell-based
condition.notes: HEK293, read-out: OR47a response (VUAA1-normalized response)
metric: activation at 1 µM (%)
All answers are understood in %, so give the number only.

The cases that follow already have their activation at 1 µM on record.
Test system Drosophila OR47a (Drosophila melanogaster); read-out activation at 1 µM; what value for `CCCCC(C)=O` ?
0

# query: activation at 1 µM | item CCCCC(C)O (stereo not drawn) | system: Drosophila OR47a (Drosophila melanogaster)
0

For the record `Cc1ccc(C)c(C)c1` , what value of activation at 1 µM is listed for Drosophila OR47a (Drosophila melanogaster)?
0

Any idea what activation at 1 µM came out for `CCCCCCCCCC=O` on Drosophila OR47a (Drosophila melanogaster)?
0

Report activation at 1 µM for CC1=CCC2CC1C2(C)C (stereo not drawn) tested on Drosophila OR47a (Drosophila melanogaster).
0

Give Drosophila OR47a (Drosophila melanogaster) activation at 1 µM for CCCC(=O)OCC [ethyl butyrate]
0

Could you share what activation at 1 µM was measured for C=C1CC/C=C(\C)CC[C@@H]2[C@@H]1CC2(C)C [(-)-trans-caryophyllene] , tested on Drosophila OR47a (Drosophila melanogaster)?
0

Find the measured activation at 1 µM: item C=C1CC[C@H]2O[C@]2(C)CC[C@@H]2[C@@H]1CC2(C)C [(-)-caryophyllene oxide] , target or system Drosophila OR47a (Drosophila melanogaster).
0

New cases:
Identify the measured activation at 1 µM of C=C1CCC2CC1C2(C)C (stereo not drawn) for Drosophila OR47a (Drosophila melanogaster).
0

What measured activation at 1 µM is associated with `CCCCCC(=O)CC` on Drosophila OR47a (Drosophila melanogaster)?
7.45

What measured activation at 1 µM is associated with `COc1cccc(OC)c1` on Drosophila OR47a (Drosophila melanogaster)?
0

For Drosophila OR47a (Drosophila melanogaster), provide activation at 1 µM of `CC1=CC[C@@H](C(C)(C)O)CC1` please.
0

* * *

system.tested: Drosophila OR13a (Drosophila melanogaster)
Construct: expressed in transfected cells
Sequence (Q9VXL0 whole entry, one chain of several): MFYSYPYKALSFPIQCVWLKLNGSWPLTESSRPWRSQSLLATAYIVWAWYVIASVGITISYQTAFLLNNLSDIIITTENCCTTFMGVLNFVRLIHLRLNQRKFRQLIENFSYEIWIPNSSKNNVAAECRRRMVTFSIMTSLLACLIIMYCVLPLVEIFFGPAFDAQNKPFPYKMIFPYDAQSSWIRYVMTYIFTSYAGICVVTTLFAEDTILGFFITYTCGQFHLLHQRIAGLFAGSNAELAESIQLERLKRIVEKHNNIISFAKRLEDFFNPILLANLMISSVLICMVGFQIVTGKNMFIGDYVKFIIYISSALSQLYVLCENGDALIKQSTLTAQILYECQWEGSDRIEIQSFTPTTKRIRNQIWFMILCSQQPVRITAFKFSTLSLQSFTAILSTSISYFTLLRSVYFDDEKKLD
protocol: Calcium ion fluorescence (GCaMP6) assay, OR13a stable HEK293 cell line
Format: cell-based
condition.notes: concentration 100; normalized fluorescence change, values below 0.05 threshold given as 0
metric: DF norm AVERAGE OR13a
Number only, please.

Quick one: DF norm AVERAGE OR13a of C=C1[C@H]2CC[C@@H]3[C@H]2C(C)(C)CCC[C@]13C [(+)-longifolene] ?
0

* * *

// Average response lookup, one value per entry
system.tested: Drosophila OR71a (Drosophila melanogaster)
Construct: expressed in transfected cells
Sequence (Q9VUK5 whole entry, one chain of several): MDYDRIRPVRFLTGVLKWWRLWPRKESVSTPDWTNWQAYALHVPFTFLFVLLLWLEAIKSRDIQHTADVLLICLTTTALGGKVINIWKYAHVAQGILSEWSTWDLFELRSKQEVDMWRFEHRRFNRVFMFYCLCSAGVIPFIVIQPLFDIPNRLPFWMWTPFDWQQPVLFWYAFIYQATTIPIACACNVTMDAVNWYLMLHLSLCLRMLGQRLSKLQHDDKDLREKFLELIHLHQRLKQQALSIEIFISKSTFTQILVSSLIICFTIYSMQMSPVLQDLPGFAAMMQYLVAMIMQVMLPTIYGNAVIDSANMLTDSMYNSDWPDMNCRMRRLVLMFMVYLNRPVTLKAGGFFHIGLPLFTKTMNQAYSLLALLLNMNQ
protocol: Calcium ion fluorescence (GCaMP6) assay, OR71a stable HEK293 cell line
Format: cell-based
condition.notes: OR71a cell line; cc. 10 µM; VUAA1-normalized response, mean of biological replicates
Write no unit; give the number alone.

Value lookup for Average response; key = CCCCCC(C)O (centres unmarked) [2-heptanol]
0.04

Turning now to a further record.
Record request: Average response value, item CCCC(=O)OCC [ethyl butyrate]
0.00

* * *

system.tested: Drosophila OR98a (Drosophila melanogaster, UniProt Q9VAZ3)
Construct: expressed in transfected cells
protocol: Calcium ion fluorescence (GCaMP6) assay, OR98a stable HEK293 cell line
Type: cell-based
condition.notes: HEK293, read-out: Average response
// reported activation at 100 µM per item
Answer with a number only, understood to be in %.

May I ask what activation at 100 µM has been recorded for Cc1ccc(O)cc1 [4-methylphenol] ?
2.76

Others:
Consider the compound shown here: C=CC(C)(O)CCC=C(C)C (stereo not shown) [linalool] What is its recorded activation at 100 µM?
4

What does the record list as activation at 100 µM for CC1=CCC23CC1C(C)(C)C2CCC3C (stereo not drawn) [α-funebrene] ?
5

Given the entry C=C1CCC2CC1C2(C)C (stereo not drawn) [beta-pinene] , report its measured activation at 100 µM.
1.89
